Overview of reported remaining activity at 100 µM across a group of compounds:
TGT: E. coli MurC (Escherichia coli, UniProt P17952)
Sequence (P17952 whole entry): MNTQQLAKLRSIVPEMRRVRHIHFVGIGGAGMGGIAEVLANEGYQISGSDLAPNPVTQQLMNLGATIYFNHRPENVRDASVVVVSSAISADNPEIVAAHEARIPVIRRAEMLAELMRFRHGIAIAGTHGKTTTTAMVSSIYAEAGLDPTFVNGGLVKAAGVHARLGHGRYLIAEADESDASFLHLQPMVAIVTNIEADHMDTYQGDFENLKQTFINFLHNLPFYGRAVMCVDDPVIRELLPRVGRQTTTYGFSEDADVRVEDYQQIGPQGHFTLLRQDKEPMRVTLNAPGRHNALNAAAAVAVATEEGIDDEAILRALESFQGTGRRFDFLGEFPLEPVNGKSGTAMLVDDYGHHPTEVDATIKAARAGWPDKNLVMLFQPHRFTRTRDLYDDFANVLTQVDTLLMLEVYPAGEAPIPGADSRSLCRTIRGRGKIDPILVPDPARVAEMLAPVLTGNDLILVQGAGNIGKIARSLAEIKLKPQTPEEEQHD
ASSAY DETAILS: Malachite green inhibition assay, MurC
Format: biochemical
MEASUREMENT CONTEXT: 0.25 h, Table S1, PKIS screening; read-out: RA [%] at 100 µM MurC
Numeric only. Scale: %

Recorded remaining activity at 100 µM, per entry:
COMPOUND	TGT	remaining activity at 100 µM, %
N#Cc1c(NC(=O)c2ccccc2F)sc2c1CCCC2 [GW572738X]	E. coli MurC (Escherichia coli, UniProt P17952)	88
Nc1nc(-c2ccccn2)c(-c2ccc3ncccc3n2)s1 [GW693481X]	E. coli MurC (Escherichia coli, UniProt P17952)	99
CN1CCN(CCCNc2nc3ccc(Oc4ccc(NC(=O)Nc5cc(C(F)(F)F)ccc5F)cc4)cc3[nH]2)CC1 [GW700494A]	E. coli MurC (Escherichia coli, UniProt P17952)	99
NS(=O)(=O)c1ccc(N/N=C2\C(=O)Nc3ccc(Cl)cc32)cc1 [GW280670X]	E. coli MurC (Escherichia coli, UniProt P17952)	100
CC1=C(C(=O)Nc2ccc3[nH]nc(C)c3c2)C(c2ccc(C(F)(F)F)cc2)CC(=O)N1 (stereo not shown) [GSK466314A]	E. coli MurC (Escherichia coli, UniProt P17952)	79
NS(=O)(=O)c1ccc(N/N=C2\C(=O)Nc3ccc(C(=O)NCCc4c[nH]cn4)cc32)cc1 [GW300660X]	E. coli MurC (Escherichia coli, UniProt P17952)	58

Reported remaining activity at 100 µM for COc1cccc(-n2nc(C)c3c(N/N=C(\C)c4ccncc4)ncnc32)c1 [GW809885X] : what is it?
76

Reported remaining activity at 100 µM for c1cc(-c2cnn3nc(N4CCOCC4)ccc23)nc(NC2CC2)n1 [GW708336X] : what is it?
98

Reported remaining activity at 100 µM for `O=C(Nc1n[nH]c2cc(-c3ccc(F)cc3)ccc12)C1CC1` : what is it?
51

Reported remaining activity at 100 µM for `CCn1c(-c2nonc2N)nc2ccccc21` : what is it?
78

Reported remaining activity at 100 µM for COc1cccc(COc2cc(-n3cnc4ccccc43)sc2C(N)=O)c1 [GW804482X] : what is it?
100

Reported remaining activity at 100 µM for COc1cc(Nc2ncc3c(C)nc(-c4cccc(C(F)(F)F)c4)n3n2)cc(OC)c1OC [GW837331X] : what is it?
65

Reported remaining activity at 100 µM for Cc1cc(O)cc(C)c1/C=C/c1cncc(C(=O)OC(C)(C)C)c1 [GW439255X] : what is it?
75
